These entries and their values trace back to patent US20240246981A1.

Experiment: Assay C: permeability in CACO-2 cells
Assay type: in vitro ADME
Settings: human, pH 7.2; Caco-2, apical to basolateral; compounds of the invention, Table 7
outcomeMeasure: Papp A→B at 2 h (×10⁻⁶ cm/s)
Give bare numbers, in ×10⁻⁶ cm/s.

Illustrative cases are given below, each with its answer.
>>> testresult("Cn1cnnc1C1CCN(c2c(C#N)cccc2-c2cncc(OC(F)F)c2)CC1 [compound 23, reference compound]")
10.1
>>> testresult("Cn1cnnc1C1CCN(c2c(C#N)cccc2-c2cnc3n[nH]cc3c2)CC1 [compound 26]")
0.4

Please report the recorded Papp A→B at 2 h for Cn1cnnc1C1CCN(c2c(C#N)cccc2-c2cnc(F)c(OC3CCC3)c2)CC1 [Example 34] .
22

###

Test: Assay C: permeability in CACO-2 cells
Type: in vitro ADME
Conditions: human, pH 7.2; Caco-2; compounds of the invention, Table 7
Kindly state efflux ratio for each of the entries shown.
One number for each entry.

>>> testresult("Cn1cnnc1C1(C)CCN(c2c(C#N)cccc2-c2ccc(F)nc2)CC1 [compound 66]")
1.4

Give efflux ratio for each listed item.
1. Cc1c(-c2cccc(C#N)c2N2CCC(c3nncn3C)CC2)cncc1-n1cccn1 [compound 46]
2. Cn1cnnc1C1CCN(c2c(C#N)cccc2-c2cnsc2)CC1 [compound 2]

1. 2.5
2. 1.8

Give efflux ratio for each listed item.
1. CC#Cc1cncc(-c2cccc(C#N)c2N2CCC(c3nncn3C)CC2)c1 [compound 10]
2. Cn1cnnc1C1(F)CCN(c2c(C#N)cccc2-c2cnc3nn(C(C)(C)C)cc3c2)CC1 [compound 62]
3. Cn1cnnc1C1CCN(c2c(C#N)cccc2-c2cnc3c(c2)CCCO3)CC1 [compound 12]

1: 2.2; 2: 19; 3: 23.7

Give efflux ratio for each listed item.
1. COCCOc1ncc(-c2cccc(C#N)c2N2CCC(c3nncn3C)CC2)cn1 [compound 3, reference compound]
2. Cn1cnnc1C1(F)CCN(c2c(C#N)cccc2-c2cncc3cn(Cc4ccccc4)nc23)CC1 [compound 78]

1. 41.8
2. 7.4

###

Kindly state IC50 for each of the entries shown.
Test system: SIRPα signalling induced by Raji cells
Experiment: Assay B: SIRPα signalling assay using Raji cells
Type: cell-based, human
Settings: Homo sapiens, compounds of the invention, Table 4, read-out: Inhibition of SIRα signalling induced by Raji cells: IC50
Answers are plain numbers, in nM.

Illustrative cases are given below, each with its answer.
>>> testresult("Cn1cnnc1C1(F)CCN(c2c(C#N)cccc2-c2cnc(=O)n(Cc3ccccc3)c2)CC1")
746
>>> testresult("Cn1cnnc1C1(F)CCN(c2c(C#N)cccc2-c2cnc(O)nc2)CC1")
851
>>> testresult("Cn1cnnc1C1(F)CCN(c2c(C#N)cccc2-c2cnc3nc(C(F)(F)F)cn3c2)CC1")
18

Please report the recorded IC50 for Cn1cnnc1C1(F)CCN(c2c(C#N)cccc2-c2cnc3nn(C(C)(C)C)c(Cl)c3c2)CC1 .
13

###

Assay: Assay C: permeability in CACO-2 cells
Type: in vitro ADME
Conditions: human, pH 7.2; Caco-2; compounds of the invention, Table 7
outcomeMeasure: efflux ratio
One number for each entry.

Give efflux ratio for each listed item.
1. Cn1cnnc1C1CCN(c2c(C#N)cccc2-c2cnc3nsnc3c2)CC1
2. Cn1cnnc1C1CCN(c2c(C#N)cccc2-c2cnc3nn(C(C)(C)C)cc3c2)CC1
3. Cn1nc2cc(-c3cccc(C#N)c3N3CCC(c4nncn4C)CC3)cnc2n1

[22.3, 75.5, 31.6]

Give efflux ratio for each listed item.
1. Cn1cnnc1C1(F)CCN(c2c(C#N)cccc2-c2cnc3nn(Cc4ccccc4)nc3c2)CC1
2. Cn1cnnc1C1(F)CCN(c2c(C#N)cccc2-c2cnc3nc(C(C)(C)C)cn3c2)CC1
3. Cn1cnnc1C1CCN(c2c(C#N)cccc2-c2cnc(F)c(Cl)c2)CC1

1.2
24.4
2

###

Kindly state Papp A→B for each of the entries shown.
Experiment: Assay C: permeability in CACO-2 cells
Format: in vitro ADME
Details: human, pH 7.2; Caco-2, apical to basolateral; compounds of the invention, Table 7
One number for each entry, in ×10⁻⁶ cm/s.

>>> testresult("Cn1cnnc1C1(F)CCN(c2c(C#N)cccc2-c2cnc3nc(-c4cccc(Cl)c4)ccn23)CC1")
33

Give Papp A→B for each listed item.
1. Cn1cnnc1C1CCN(c2c(C#N)cccc2-c2cnc3c(c2)OCO3)CC1
2. COc1cc(-c2cccc(C#N)c2N2CCC(c3nncn3C)CC2)cnn1
3. Cn1cnnc1C1CCN(c2c(C#N)cccc2-c2cnc3nc(-c4cccc(Cl)c4)ccn23)CC1

[7.4, 1.1, 5.5]

###

System: SIRPα signalling induced by Raji cells
Experiment: Assay B: SIRPα signalling assay using Raji cells
Format: cell-based, human
Conditions: Homo sapiens, compounds of the invention, Table 4, read-out: Inhibition of SIRα signalling induced by Raji cells: IC50
pIC50: −log10 of the molar value.
Tag: met if measured pIC50 is not below 7, not met if it is.

>>> grouplabel("Cc1cncc(-c2cccc(C#N)c2N2CCC(c3nncn3C)CC2)c1")
"not met"
>>> grouplabel("Cn1cnnc1C1CCN(c2c(C#N)cccc2-c2cnc3nc(-c4cccc(Cl)c4)ccn23)CC1")
"not met"
>>> grouplabel("Cn1cnnc1C1CCN(c2c(C#N)cccc2-c2cnc3nonc3c2)CC1")
"not met"
>>> grouplabel("Cn1cnnc1C1(F)CCN(c2c(C#N)cccc2-c2ccc(F)nc2)CC1")
"met"
>>> grouplabel("Cn1cnnc1C1(F)CCN(c2c(C#N)cccc2-c2cnc3nnn(Cc4ccccc4)c3c2)CC1")
"met"

Threshold query (pIC50 >= 7) on Cn1cnnc1C1CCN(c2c(C#N)cccc2-c2cnc3c(c2)CCCO3)CC1
not met

Cn1cnnc1C1CCN(c2c(C#N)cccc2-c2cnc(F)c(OC3CCC3)c2)CC1 , same question.
met

Cn1cnnc1C1CCN(c2c(C#N)cccc2-c2cncc(C3CC3)c2)CC1 , same question.
not met

Cn1cnnc1C1CCN(c2c(C#N)cccc2-c2cnc(F)c(OCC3CC3)c2)CC1 , same question.
met

Cn1cnnc1C1(F)CCN(c2c(C#N)cccc2-c2cnc3nn(C(C)(C)C(F)(F)F)cc3c2)CC1 , same question.
met

Cn1cnnc1C1CCN(c2c(C#N)cccc2-c2cnc3nsnc3c2)CC1 , same question.
not met

###

Tested on: SIRPα signalling induced by Raji cells
Experiment: Assay B: SIRPα signalling assay using Raji cells
Type: cell-based, human
Conditions: Homo sapiens, compounds of the invention, Table 4, read-out: Inhibition of SIRα signalling induced by Raji cells: IC50
Kindly state IC50 for each of the entries shown.
One number for each entry, in nM.

>>> testresult("Cn1cnnc1C1(F)CCN(c2c(C#N)cccc2-c2cnc3nn(C(C)(C)C)cc3c2)CC1")
21
>>> testresult("COc1cc(-c2cccc(C#N)c2N2CCC(c3nncn3C)CC2)cnn1")
446
>>> testresult("Cn1cnnc1C1CCN(c2c(C#N)cccc2-c2cnn3ncccc23)CC1")
442
>>> testresult("Cn1cnnc1C1CCN(c2c(C#N)cccc2-c2cncc(C3CCCCO3)c2)CC1 (stereo not shown)")
133
>>> testresult("CC(C)Oc1cc(-c2cccc(C#N)c2N2CCC(c3nncn3C)CC2)cnc1F")
53

Give IC50 for each listed item.
1. Cn1cnnc1C1CCN(c2c(C#N)cccc2-c2cnn3nc(-c4cccc(Cl)c4)ccc23)CC1
2. Cc1cc(F)ncc1-c1cccc(C#N)c1N1CCC(c2nncn2C)CC1
3. Cn1cnnc1C1CCN(c2c(C#N)cccc2-c2cnc3nc[nH]c3c2)CC1
4. Cn1cnnc1C1CCN(c2c(C#N)cccc2-c2cnc(F)c(OC(F)(F)F)c2)CC1
5. Cc1ccncc1-c1cccc(C#N)c1N1CCC(c2nncn2C)CC1
6. Cn1cnnc1C1CCN(c2c(C#N)cccc2-c2cncc(-c3ccccc3)c2)CC1 [compound 21, reference compound]

[27, 88, 501, 244, 257, 1320]

Give IC50 for each listed item.
1. Cn1cnnc1C1(F)CCN(c2c(C#N)cccc2-c2cnc(=O)n(C)c2)CC1
2. Cn1cnnc1C1CCN(c2c(C#N)cccc2-c2cncc3cn(Cc4ccccc4)nc23)CC1
3. Cn1cnnc1C1CCN(c2c(C#N)cccc2-c2cncc(-c3ncco3)c2)CC1

[493, 374, 121]

Give IC50 for each listed item.
1. COC(=O)c1cncc(-c2cccc(C#N)c2N2CCC(c3nncn3C)CC2)c1
2. Cn1cnnc1C1(F)CCN(c2c(C#N)cccc2-c2cnc3nc(C(C)(C)C)nn3c2)CC1
3. Cn1cnnc1C1(F)CCN(c2c(C#N)cccc2-c2cnn3nc(-c4cccc(Cl)c4)ccc23)CC1
4. Cn1cnnc1C1(C)CCN(c2c(C#N)cccc2-c2cccnc2)CC1
5. Cc1c(-c2cccc(C#N)c2N2CCC(c3nncn3C)CC2)cncc1-n1cccn1

1. 483
2. 28
3. 16
4. 1040
5. 97

###

Kindly state log10 IC50 for each of the entries shown.
Molecular target: QPCTL (Homo sapiens (Human), UniProt Q9NXS2)
Sequence (Q9NXS2 whole entry): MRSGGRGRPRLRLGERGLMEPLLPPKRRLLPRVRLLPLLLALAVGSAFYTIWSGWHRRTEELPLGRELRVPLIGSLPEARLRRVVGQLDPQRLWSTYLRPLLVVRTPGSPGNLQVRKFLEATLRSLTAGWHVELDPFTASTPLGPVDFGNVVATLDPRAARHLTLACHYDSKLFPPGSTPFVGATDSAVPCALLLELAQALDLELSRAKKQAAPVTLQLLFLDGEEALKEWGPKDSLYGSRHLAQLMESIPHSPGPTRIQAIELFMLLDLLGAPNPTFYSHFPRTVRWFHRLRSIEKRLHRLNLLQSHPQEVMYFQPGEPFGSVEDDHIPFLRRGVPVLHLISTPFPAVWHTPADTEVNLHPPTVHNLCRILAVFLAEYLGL
Assay: Assay A: biochemical QPCTL activity assay (MALDI-TOF MS)
Conditions: compounds of the invention, Table 2; read-out: Inhibition of QPCTL: IC50
For clarity, the numbers are log10 values of IC50 expressed in nM.

Illustrative cases are given below, each with its answer.
>>> testresult("Cn1cnnc1C1(F)CCN(c2c(C#N)cccc2-c2cnc3nnn(Cc4ccccc4)c3c2)CC1 [compound 63]")
0.00
>>> testresult("Cn1cnnc1C1CCN(c2c(C#N)cccc2-c2cnc(F)c(OCC3CC3)c2)CC1 [compound 36]")
0.00
>>> testresult("Cn1cnnc1C1CCN(c2c(C#N)cccc2-c2cncc(-c3ncco3)c2)CC1 [compound 29]")
0.48
>>> testresult("Cn1cnnc1C1CCN(c2c(C#N)cccc2-c2cnc(F)c(OC3CC3)c2)CC1 [compound 47]")
0.30
>>> testresult("Cn1cnnc1C1CCN(c2c(C#N)cccc2-c2cncnc2)CC1 [compound 13]")
1.18

Give log10 IC50 for each listed item.
1. Cn1cnnc1C1CCN(c2c(C#N)cccc2-c2cnc(F)c(OC(F)(F)F)c2)CC1 [compound 31]
2. Cn1cnnc1C1(F)CCN(c2c(C#N)cccc2-c2cnn3ncccc23)CC1 [compound 70]
3. Cc1c(-c2cccc(C#N)c2N2CCC(c3nncn3C)CC2)cncc1-n1cccn1 [compound 46]

0.95
0.70
0.30

Give log10 IC50 for each listed item.
1. CNC(=O)c1cncc(-c2cccc(C#N)c2N2CCC(c3nncn3C)CC2)c1 [Example 80]
2. Cn1cnnc1C1CCN(c2c(C#N)cccc2-c2cnc(F)c(Cl)c2)CC1 [compound 42]
3. Cn1cnnc1C1CCN(c2c(C#N)cccc2-c2cnc3nsnc3c2)CC1 [compound 43]
4. Cn1cnnc1C1(F)CCN(c2c(C#N)cccc2-c2cnc3nc(C(F)(F)F)nn3c2)CC1 [compound 73]
5. COCCOc1ncc(-c2cccc(C#N)c2N2CCC(c3nncn3C)CC2)cn1 [compound 3, reference compound]
6. Cn1cnnc1C1CCN(c2c(C#N)cccc2-c2cnn3ncccc23)CC1 [compound 57]

1. 0.30
2. 0.60
3. 0.48
4. 0.60
5. 1.04
6. 0.70
